Quick reference: Binding intensity (normalized) of the listed items.
# MEASURED_TARGET: T1, biotinylated p53β peptide (human, also: biotinylated, site not given here)
# T1 construct: also called biotinylated p53-aggregating peptide
# T1 peptide: ILTIITL
# ASSAY_EXPLANATION: peptide-binding assay: peptide spots on membrane, biotinylated p53β peptide, streptavidin-HRP;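 note: Membrane-bound synthesized peptide spots exposed to the biotinylated p53 aggregation-prone peptide, bound material revealed via streptavidin-HRP and chemiluminescence, spot signal reflecting binding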
Where no end group is shown, it is not given here.
ASSAY_READOUT: Binding intensity (normalized)

1. ILTKSTL (spot-synthesized on membrane; also called position Nr 51) [CND2_HUMAN peptide ILTKSTL]	17.9
2. IHAIITL (spot-synthesized on membrane; also called position Nr 27) [LRC40_HUMAN peptide IHAIITL]	8.22
3. ALVIITL (spot-synthesized on membrane; also called position Nr 23) [CCNI2_HUMAN peptide ALVIITL]	43.4
4. IVTIITA (spot-synthesized on membrane; also called position Nr 3) [PDS5A_HUMAN peptide IVTIITA]	17.2
5. ILQIISL (spot-synthesized on membrane; also called position Nr 18) [PK3C3_HUMAN peptide ILQIISL]	26.3
6. DLTIIDL (spot-synthesized on membrane; also called position Nr 50) [MX2_HUMAN peptide DLTIIDL]	40.2
7. FLTIFTL (spot-synthesized on membrane; also called position Nr 25) [PRA10_HUMAN peptide FLTIFTL]	26.4
8. ILTLIEL (spot-synthesized on membrane; also called position Nr 41) [SMG1_HUMAN peptide ILTLIEL]	9.77
9. ILRQITL (spot-synthesized on membrane; also called position Nr 56) [CD2A1_HUMAN peptide ILRQITL]	14.7
10. TLTISTL (spot-synthesized on membrane; also called position Nr 15) [KV117_HUMAN peptide TLTISTL]	10.2
11. ILTIITL (spot-synthesized on membrane; also called p53β; position Nr 1) [P53_HUMAN peptide ILTIITL (immobilised spot)]	100
12. ILTKPTL (spot-synthesized on membrane; also called position Nr 28) [MYST3_HUMAN peptide ILTKPTL]	16.1
13. ILTICTK (spot-synthesized on membrane; also called position Nr 47) [RTTN_HUMAN peptide ILTICTK]	6.48
14. ILKQITL (spot-synthesized on membrane; also called position Nr 49) [TAF4B_HUMAN peptide ILKQITL]	19.8
15. ILTILTE (spot-synthesized on membrane; also called caspase-8 (CASP8) segment; position Nr 11) [CASP8_HUMAN peptide ILTILTE]	11.4
16. ILTILCL (spot-synthesized on membrane; also called position Nr 5) [TAGAP_HUMAN peptide ILTILCL]	4.81
17. IQTISTL (spot-synthesized on membrane; also called position Nr 55) [SCC4_HUMAN peptide IQTISTL]	7.06
18. KLTIITS (spot-synthesized on membrane; also called position Nr 53) [CM031_HUMAN peptide KLTIITS]	17.9
19. IKTIINL (spot-synthesized on membrane; also called position Nr 33) [PTPC1_HUMAN peptide IKTIINL]	9.72
